Data credit: patent US20230227537A1

# Lookup of reported IC50 keyed by entry
Molecular target: SARS-CoV-2 RBD protein Avi-tag biotinylated (AcroBiosystems SPD-C82E9) (SARS-CoV-2, UniProt P0DTC2 330-518)
Assay: competition AlphaLISA; competitor human ACE2-mFc
# value in nM; strip the unit string

VHH3.38 (VHH) VHH: QVQLQESGGGLVQAGGSLRLSCAASGGTFNNYAMAWFRQAPGQERELVAAMFWSGLPKYYADSVKGRFTISTDDAKNTVYLQMNGLKPEDTAVYYCAADSRGWSDVGGMDYWGKGTQVTVSS    2.01

What value of measured IC50 is listed for VHH3.77 (VHH) VHH: QVQLQESGGGLVQAGGSLRLSCVSSGRAFGNGAVGWFRQGPGRPREFVATVSWNGGGTYFAESVRGRFTISRDNAKNTVYLQMNNLKPEDTAVYYCALAGEGTVVSEWDYDYEYWGQGTQVTVSS ?
0.723

What does the data say about its IC50? Entry: VHH3.144 (VHH) VHH: QVQLQESGGGLVQAGGSLRLSCVASGRAFGNGAVGWFRQAPGREREFVATVSWNGGGTYYAESVRGRFTISRDNAKSTVYLQMNSLKPEDTAVYYCASAGEGTVVSEWDYDYDYWGQGTQVTVSS
1.12
